test_system: CYP3A4 (Homo sapiens, UniProt P08684)
Sequence (P08684 whole entry): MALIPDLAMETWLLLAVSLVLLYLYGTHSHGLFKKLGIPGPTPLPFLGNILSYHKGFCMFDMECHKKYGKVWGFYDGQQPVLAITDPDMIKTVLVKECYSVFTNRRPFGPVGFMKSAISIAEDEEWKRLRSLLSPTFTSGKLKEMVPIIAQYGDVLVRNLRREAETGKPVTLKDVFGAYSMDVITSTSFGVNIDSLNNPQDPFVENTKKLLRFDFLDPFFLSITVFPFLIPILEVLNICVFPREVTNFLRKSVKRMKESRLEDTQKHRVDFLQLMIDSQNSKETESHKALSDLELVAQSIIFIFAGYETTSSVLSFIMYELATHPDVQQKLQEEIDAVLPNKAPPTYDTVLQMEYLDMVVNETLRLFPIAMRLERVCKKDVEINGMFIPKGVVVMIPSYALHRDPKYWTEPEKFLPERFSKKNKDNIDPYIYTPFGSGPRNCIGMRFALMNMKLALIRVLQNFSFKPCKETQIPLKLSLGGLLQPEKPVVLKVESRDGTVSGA
protocol_summary: Inhibition of recombinant CYP3A4 expressed in baculovirus-infected insect microsome at 10 uM
Assay type: ADME
Each item that follows carries a reported inhibition at 10 µM.
measurement_name: inhibition at 10 µM (%)

compound | measurement_name | endpoint_value
CCC(c1ccc(-c2ccc(O)c(O)c2)cc1F)n1ccnc1 (racemic) | inhibition at 10 µM | 100
CCC(c1ccc(-c2ccc(O)cc2)cc1)n1ccnc1 (racemic) | inhibition at 10 µM | 91
CCC(c1ccc(-c2ccc(O)c(C)c2)cc1)n1ccnc1 (racemic) | inhibition at 10 µM | 98
CCC(c1ccc(-c2cccc(O)c2)cc1)n1ccnc1 (racemic) | inhibition at 10 µM | 88
CCC(c1ccc(-c2ccc(OC)c(OC)c2)cc1)n1ccnc1 (racemic) | inhibition at 10 µM | 93

----------
test_system: CYP11B1 (Homo sapiens)
Sequence (P15538 whole entry): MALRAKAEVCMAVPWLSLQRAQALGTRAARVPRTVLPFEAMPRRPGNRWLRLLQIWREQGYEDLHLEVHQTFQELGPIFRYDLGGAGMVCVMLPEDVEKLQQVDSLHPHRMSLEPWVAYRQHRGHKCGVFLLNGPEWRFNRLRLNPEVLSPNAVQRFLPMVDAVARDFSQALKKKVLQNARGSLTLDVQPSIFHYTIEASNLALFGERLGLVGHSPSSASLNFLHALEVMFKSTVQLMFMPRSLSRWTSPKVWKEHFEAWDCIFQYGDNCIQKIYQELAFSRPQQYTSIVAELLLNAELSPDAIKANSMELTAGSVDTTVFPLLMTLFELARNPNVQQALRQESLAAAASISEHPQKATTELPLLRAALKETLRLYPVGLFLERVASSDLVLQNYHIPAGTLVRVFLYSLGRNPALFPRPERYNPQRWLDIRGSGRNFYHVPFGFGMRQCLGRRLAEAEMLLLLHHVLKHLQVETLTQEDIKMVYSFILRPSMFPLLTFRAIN
protocol_summary: Inhibition of recombinant CYP11B1 expressed in V79MZh11B1 cells at 0.2 uM
Type: cell-based
particulars: hamster, V79MZh11B1 cells expressing recombinant CYP11B1
measurement_name: inhibition at 0.2 µM (%)

compound | value_units | endpoint_value
CCC(c1ccc(-c2ccc(O)cc2)cc1F)n1ccnc1 (racemic) | % | 89
CCC(c1ccc(-c2ccc(O)c(Cl)c2)cc1)n1ccnc1 (racemic) | % | 89
CCC(c1ccc(-c2ccc(O)cc2)cc1)n1ccnc1 (racemic) | % | 89
CC(=O)N1CCN(c2ccc(OCC3COC(Cn4ccnc4)(c4ccc(Cl)cc4Cl)O3)cc2)CC1 (stereo unspecified) [KETOCONAZOLE] | % | 61
CCC(c1ccc(-c2cc(O)cc(O)c2)cc1)n1ccnc1 (racemic) | % | 93
CCC(c1ccc(-c2ccc(O)c(O)c2)cc1)n1ccnc1 (racemic) | % | 38
CCC(c1ccc(-c2ccc(O)c(O)c2)cc1F)n1ccnc1 (racemic) | % | 51
CCC(c1ccc(-c2cccc(OC)c2)cc1)n1ccnc1 (racemic) | % | 84
CCC(c1ccc(-c2cc(C)c(O)c(C)c2)cc1)n1ccnc1 (racemic) | % | 45
CCC(c1ccc(-c2ccc(O)c(C)c2)cc1)n1ccnc1 (racemic) | % | 91
CCC(c1ccc(-c2cccc(O)c2)cc1)n1ccnc1 (racemic) | % | 90

----------
test_system: Steroid 17-alpha-hydroxylase/17,20 lyase (Homo sapiens, UniProt P05093)
Sequence (P05093 whole entry): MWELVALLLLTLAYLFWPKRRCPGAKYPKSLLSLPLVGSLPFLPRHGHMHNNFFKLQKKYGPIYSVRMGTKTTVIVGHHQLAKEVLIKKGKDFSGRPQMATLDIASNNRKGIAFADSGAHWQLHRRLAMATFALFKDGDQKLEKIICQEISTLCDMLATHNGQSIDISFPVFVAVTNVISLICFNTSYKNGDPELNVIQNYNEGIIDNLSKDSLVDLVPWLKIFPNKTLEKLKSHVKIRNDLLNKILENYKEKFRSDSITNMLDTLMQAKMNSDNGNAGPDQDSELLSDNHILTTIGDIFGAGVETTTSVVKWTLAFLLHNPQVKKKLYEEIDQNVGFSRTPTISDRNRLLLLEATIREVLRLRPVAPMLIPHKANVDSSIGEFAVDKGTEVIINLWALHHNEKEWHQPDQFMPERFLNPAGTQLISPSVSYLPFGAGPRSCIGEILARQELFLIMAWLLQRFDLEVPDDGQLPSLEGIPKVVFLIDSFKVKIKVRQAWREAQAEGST
protocol_summary: Inhibition of human CYP17 expressed in Escherichia coli coexpressing NADPH-P450 reductase at 2 uM
Quick rule: inhibition at 2 µM of at least 90% means Satisfied, below that means Not satisfied.

molecule | assigned_class
CCC(c1ccc(-c2cc(C)c(O)c(C)c2)cc1)n1ccnc1 (racemic) | Not satisfied
CCC(c1ccc(-c2ccc(OC)cc2)cc1)n1ccnc1 (racemic) | Not satisfied
CCC(c1ccc(-c2ccc(O)c(O)c2)cc1F)n1ccnc1 (racemic) | Satisfied
CCC(c1ccc(-c2ccc(OC)c(OC)c2)cc1)n1ccnc1 (racemic) | Not satisfied
CCC(c1ccc(-c2ccc(O)cc2)cc1)n1ccnc1 (racemic) | Not satisfied
CCOc1ccc(-c2ccc(C(CC)n3ccnc3)cc2)cc1 (racemic) | Not satisfied
CCC(c1ccc(-c2cccc(OC)c2)cc1)n1ccnc1 (racemic) | Not satisfied
CCC(c1ccc(-c2ccc(O)cc2)cc1F)n1ccnc1 (racemic) | Satisfied
COc1cccc(-c2ccc(C(C)n3ccnc3)cc2)c1 (racemic) | Not satisfied
COc1ccc(-c2ccc(C(C)n3ccnc3)cc2)cc1 (racemic) | Not satisfied
